Hey, just so you know, these numbers are from ChEMBL document CHEMBL1137843.

# tested on: Vanilloid receptor (Rattus norvegicus, UniProt Q9ERZ8+Q9WUD2+O35433)
# experiment summary: In vitro antagonist activity at the vanilloid receptor in rat DRG neurons.
# Assay type: functional
Mark 1.0 only when IC50 stays strictly below 1000 nM. Values equal to the cut-off are 0.0.

Answered examples (4):
[
  {
    "compound": "COc1cc(C/N=C(\\S)NCc2ccc(C(C)(C)C)cc2)ccc1OS(C)(=O)=O",
    "group label": 1.0
  },
  {
    "compound": "CC(C)(C)c1ccc(C/N=C(\\S)NCc2ccc(NS(=O)(=O)C(F)(F)F)cc2)cc1",
    "group label": 0.0
  },
  {
    "compound": "CCS(=O)(=O)Nc1ccc(C/N=C(\\S)NCc2ccc(C(C)(C)C)cc2)cc1",
    "group label": 0.0
  },
  {
    "compound": "Oc1cc2c(cc1O)CN(C(=S)NCCc1ccc(Cl)cc1)CCC2 [CAPSAZEPINE]",
    "group label": 1.0
  }
]

// switching to the query compound
// query # strict comparison: is reported IC50 < 1000 nM? input = "CCCCS(=O)(=O)Nc1ccc(C/N=C(\S)NCc2ccc(C(C)(C)C)cc2)cc1"
// result 0.0

----------
# tested on: Vanilloid receptor (Rattus norvegicus, UniProt Q9ERZ8+Q9WUD2+O35433)
# experiment summary: In vitro antagonist activity at the vanilloid receptor in rat DRG neurons.
# Assay type: functional
test readout: IC50 (µM)
Please state the figure in µM; there is no need to write the unit.

[
  {
    "smiles notation": "CCCS(=O)(=O)Nc1ccc(C/N=C(\\S)NCc2ccc(C(C)(C)C)cc2)cc1",
    "IC50 [µM]": 4.5
  }
]

// query Tell me the measured IC50 of "CC(C)(C)c1ccc(C/N=C(\S)NCc2ccc(OS(C)(=O)=O)cc2)cc1" , please.
// result 9.3

// query Tell me the measured IC50 of "CN(C)S(=O)(=O)Nc1ccc(C/N=C(\S)NCc2ccc(C(C)(C)C)cc2)cc1" , please.
// result 14.6

// query Tell me the measured IC50 of "CNS(=O)(=O)Nc1ccc(C/N=C(\S)NCc2ccc(C(C)(C)C)cc2)cc1" , please.
// result 2.5

// query Tell me the measured IC50 of "CC(C)(C)c1ccc(C/N=C(\S)NCc2ccc(C(F)(F)F)cc2)cc1" , please.
// result 12.4

// query Tell me the measured IC50 of "CC(C)(C)c1ccc(C/N=C(\S)NCc2ccc(NS(=O)(=O)CC(F)(F)F)cc2)cc1" , please.
// result 11.7

// query Tell me the measured IC50 of "CC(C)S(=O)(=O)Nc1ccc(C/N=C(\S)NCc2ccc(C(C)(C)C)cc2)cc1" , please.
// result 3.8

// query Tell me the measured IC50 of "CN(c1ccc(C/N=C(\S)NCc2ccc(C(C)(C)C)cc2)cc1)S(C)(=O)=O" , please.
// result 2.5

// query Tell me the measured IC50 of "CC(C)(C)c1ccc(C/N=C(\S)NCc2ccc(NS(=O)(=O)Cc3ccccc3)cc2)cc1" , please.
// result 1.5
